Ref: ChEMBL document CHEMBL5303304

Test system: HEK-293T
assay.comment: Incucyte cell viability with HEK293T; further: unitless GR value; below 1 slowed growth and below 0 cell loss
Type: toxicity, cell-based
particulars: human, 0 h, 10 µM, compound concentration 10 uM, replicate number 1
Rule: Growth Rate below -0.1 gives y. Equal to or above -0.1 gives n.

Query block: Decide: Growth Rate of Fc1cccc(-n2cnc3c(NCc4nc5ccc(F)c(F)c5[nH]4)nc(N4CCOCC4)nc32)c1 strictly below -0.1?
Result block: y

Query block: Decide: Growth Rate of COc1cc(-c2cncc(-c3ccc(N4CCN(C(C)C)CC4)cc3)c2C)cc(F)c1C(=O)N1CCCC1 strictly below -0.1?
Result block: y

Query block: Decide: Growth Rate of COc1cc(O)c(C(CC(=O)N2C[C@H](C)C[C@H](C)C2)c2ccc3c(c2)OCO3)c(OC)c1 (stereo partly drawn) strictly below -0.1?
Result block: n

Query block: Decide: Growth Rate of C[C@@H]1CC[C@@]2(OC1)O[C@H]1[C@@H](O)[C@H]3[C@@H]4CC[C@H]5C[C@@H](O[C@@H]6O[C@H](CO)[C@H](O[C@@H]7O[C@H](CO)C(O)[C@H](O[C@@H]8OC[C@@H](O)[C@H](O)[C@H]8O)[C@H]7O[C@@H]7O[C@H](CO)[C@H](O)[C@H](O[C@@H]8O[C@H](CO)[C@@H](O)[C@H](O)[C@H]8O)[C@H]7O)[C@H](O)[C@H]6O)[C@H](O)C[C@]5(C)[C@H]4CC[C@]3(C)[C@H]1[C@@H]2C (stereo partly drawn) [DIGITONIN] strictly below -0.1?
Result block: y

Query block: Decide: Growth Rate of N[C@@H](Cn1cc(F)c(=O)[nH]c1=O)C(=O)O strictly below -0.1?
Result block: n

Query block: Decide: Growth Rate of O=C(O)CCCCN(CCc1cc(F)ccc1OCc1ccc(-c2ccc(C(F)(F)F)cc2)cc1)Cc1ccc(C(=O)O)cc1 strictly below -0.1?
Result block: n

Query block: Decide: Growth Rate of Cn1c(=O)n(CCCO)c(=O)c2c1nc(Oc1cccc(OC(F)(F)F)c1)n2Cc1ccc(Cl)cc1 [ZERENCOTREP] strictly below -0.1?
Result block: n

Query block: Decide: Growth Rate of NS(=O)(=O)c1ccc(Nc2nc(OCC3CCCCC3)c3nc[nH]c3n2)cc1 strictly below -0.1?
Result block: n

Query block: Decide: Growth Rate of Cc1ccccc1C1C(=O)N(C)c2cnc(Nc3ccc(S(N)(=O)=O)cc3)nc2N1C (stereo not drawn) strictly below -0.1?
Result block: y

Query block: Decide: Growth Rate of Cn1c2ccccc2c2c3c(c4c5ccccc5n(CCC#N)c4c21)CNC3=O [GO-6976] strictly below -0.1?
Result block: y

Query block: Decide: Growth Rate of Cc1ccc(S(=O)(=O)O)cc1.Cn1cc(-c2ccc(F)c(C(F)(F)F)c2)nc1C1CCN(c2ncnc3[nH]ncc23)CC1 strictly below -0.1?
Result block: n

Query block: Decide: Growth Rate of Clc1cccc(-n2nnnc2NCc2ccccc2Oc2ccccn2)c1Cl strictly below -0.1?
Result block: n

Query block: Decide: Growth Rate of O=C(O)c1cccc(C2=C(c3cc(Cl)ccc3OCc3ccc(F)cc3F)CCC2)n1 strictly below -0.1?
Result block: n

Query block: Decide: Growth Rate of CN(C)CCCn1cc(C2=C(c3c[nH]c4ccccc34)C(=O)NC2=O)c2ccccc21 [GF-109203] strictly below -0.1?
Result block: y

Query block: Decide: Growth Rate of O=C1CCCN1CCNc1nc(Nc2ccc(Cl)c(Cl)c2)ncc1C(F)(F)F strictly below -0.1?
Result block: y

Query block: Decide: Growth Rate of Cc1csc(-c2nnc(Nc3ccc(Oc4ncccc4-c4ccnc(N)n4)cc3)c3ccccc23)c1 [AMG-900] strictly below -0.1?
Result block: y

Query block: Decide: Growth Rate of O=C1Nc2ccc(I)cc2/C1=C/c1cc(Br)c(O)c(Br)c1 strictly below -0.1?
Result block: y

Query block: Decide: Growth Rate of Cl.NCC(O)c1ccc(O)cc1 (stereo not drawn) [OCTOPAMINE HYDROCHLORIDE] strictly below -0.1?
Result block: n

Query block: Decide: Growth Rate of C=CC(=O)N1CCC[C@@H](n2nc(C(=O)Nc3ccc(CC(=O)N(C)C)c(C)c3C)c3c(N)ncnc32)C1 strictly below -0.1?
Result block: y

Query block: Decide: Growth Rate of Cc1cc(S(=O)(=O)N2CC(C)(C)c3cc(-c4ccc(C(F)(F)F)cc4)ccc32)ccc1OCC(=O)O strictly below -0.1?
Result block: n

Query block: Decide: Growth Rate of COc1ccc(CC(=O)NCc2ccccc2-c2ccccc2C(=O)NCc2ccc(F)cc2F)cc1 strictly below -0.1?
Result block: n

Query block: Decide: Growth Rate of COc1ccc(OC)c(-c2ccc(NC(=O)c3ccncc3F)cc2)c1 strictly below -0.1?
Result block: y

Query block: Decide: Growth Rate of COP(=O)(CCC(N)C(=O)O)Oc1cccc(CC(=O)O)c1 (stereo not drawn) strictly below -0.1?
Result block: n

Query block: Decide: Growth Rate of COc1cc(Nc2ccc([N+](=O)[O-])cc2C(=O)O)cc2ccccc12 strictly below -0.1?
Result block: n

Query block: Decide: Growth Rate of Nc1nccc(-c2c(-c3ccc(F)cc3)ncn2C2CCN(Cc3ccon3)CC2)n1 strictly below -0.1?
Result block: n

Query block: Decide: Growth Rate of Cc1noc(C)c1-c1cnc2c(-c3ccc(C(=O)O)cc3)cn([C@@H](C)c3ccccn3)c2c1 [PLX-51107] strictly below -0.1?
Result block: n

Query block: Decide: Growth Rate of N=C(N)Nc1cc(C2CCNCC2)cc(C(F)(F)F)c1.O=C(O)C(F)(F)F.O=C(O)C(F)(F)F strictly below -0.1?
Result block: n

Query block: Decide: Growth Rate of CC(=O)Nc1cccc(-n2c(=O)n(C3CC3)c(=O)c3c(Nc4ccc(I)cc4F)n(C)c(=O)c(C)c32)c1 [TRAMETINIB] strictly below -0.1?
Result block: n

Query block: Decide: Growth Rate of C[C@@H]1OCC2(CCN(c3cnc(Sc4ccnc(N)c4Cl)c(N)n3)CC2)[C@@H]1N [BATOPROTAFIB] strictly below -0.1?
Result block: n

Query block: Decide: Growth Rate of CN(C)CCC[C@@]1(c2ccc(F)cc2)OCc2cc(C#N)ccc21 [ESCITALOPRAM] strictly below -0.1?
Result block: y

Query block: Decide: Growth Rate of CN(C(=O)c1cnn2cccnc12)c1cc2c(cc1N1CCOCC1)C(=O)N(C[C@@H](F)C(C)(C)O)C2 strictly below -0.1?
Result block: n

Query block: Decide: Growth Rate of CCOP(=O)(OCC)C(=Cc1cc(C(C)(C)C)c(O)c(C(C)(C)C)c1)P(=O)(OCC)OCC strictly below -0.1?
Result block: n

Query block: Decide: Growth Rate of Cl.O=c1cc(C2CCNCC2)n2nc3cccc(Cl)c3c2[nH]1 strictly below -0.1?
Result block: y
